test: Comparative toxicology in non-human primate (NOAEL); conditions: cynomolgus macaque, in vivo; 28-day GLP toxicology study in cynomolgus macaques; read-out: No Adverse Effect Level (NOAEL)
quantityName: NOAEL at 28 day (mg/kg)

| molecule | recordedValue |
| --- | --- |
| CCC(C)OC(=O)OC[N+]1(C)CCN(Cc2ccc(C(=O)Nc3ccc(C)c(Nc4nccc(-c5cccnc5)n4)c3)cc2)CC1 (stereo not shown) | 75 |
